# TEST_PARAMETERS: human; liver_microsomes
For each of the molecules below, state its microsomal CLint.

Provide microsomal CLint value for the following molecule: NCc1cccc(NC(=O)[C@H](NC(=O)OCc2ccccc2)C(C2CCC2)C2CCC2)c1 (racemic)
12.6 µL/min/mg

Determine its reported microsomal CLint: CCNC(=O)c1cc2c(N[C@H](c3ccc4c(c3)S(=O)(=O)CCC4)C(C)C)ncnc2[nH]1 (racemic)
108 µL/min/mg

Identify the reported microsomal CLint for the following entry. CC[C@H](Cc1nnn[nH]1)c1ccc(NC(=O)c2cc(Cl)cc(NC(=O)OCc3ccccc3)c2)cc1 (racemic)
24.9 µL/min/mg

Tell us which microsomal CLint value is on record for NCCc1ccc(NC(=O)c2cc(Cl)cc(NC(=O)OCc3ccccc3)c2)cc1
17.5 µL/min/mg

Respond only with microsomal CLint recorded for Cn1ncc(-c2cc3c(N[C@H](c4ccc5c(c4)OCCO5)C(C)(C)C)ncnc3[nH]2)c1C#N (racemic)
85 µL/min/mg

Give the reported microsomal CLint for this molecule. c1ccc2c(CN3CCC(c4c[nH]c5cccnc45)CC3)c[nH]c2c1
16 µL/min/mg

Retrieve microsomal CLint measured for CC(C)[C@H](Nc1ncnc2[nH]c(-c3cnn(C)c3)cc12)c1ccc2c(c1)S(=O)(=O)NCC2 (racemic) and print it.
120 µL/min/mg

Please give measured microsomal CLint of the following entry: COCCNC(=O)[C@H](Nc1ccc2c(c1)CNC2)c1cc(Cl)cc(C2CC2)c1 (single isomer, unassigned)
19.7 µL/min/mg
